measuredOn: Adenosine receptor A1 (Homo sapiens) (UniProt P30542)
Sequence (whole entry): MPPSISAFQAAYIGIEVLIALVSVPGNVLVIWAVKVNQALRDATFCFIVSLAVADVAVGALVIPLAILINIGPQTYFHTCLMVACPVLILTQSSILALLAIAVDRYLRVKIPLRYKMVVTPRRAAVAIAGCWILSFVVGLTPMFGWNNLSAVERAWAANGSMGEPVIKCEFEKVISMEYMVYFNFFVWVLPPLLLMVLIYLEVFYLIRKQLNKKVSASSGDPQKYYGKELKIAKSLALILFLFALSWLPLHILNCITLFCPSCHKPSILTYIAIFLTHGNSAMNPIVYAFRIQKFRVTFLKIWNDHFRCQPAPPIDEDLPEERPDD
experiment: Potentiation of CCPA-induced displacement of [3H]-DPCPX from human adenosine A1 receptor expressed in CHO cell membranes at 10 uM after 90 mins relative to CCPA-treated control
assayEndpoint: fold change (FC)
Numbers only.

Sample records with fold change (FC):
INSERT INTO measurements (smilesrepr, assayendpoint, assayresult) VALUES
  ('COc1ccc(-c2sc(N)c(C(=O)c3ccc(Cl)cc3)c2CC(C)(C)C)cc1', 'fold change (FC)', 4.3),
  ('Cc1ccccc1-c1sc(N)c(C(=O)c2ccc(Cl)cc2)c1CC(C)(C)C', 'fold change (FC)', 2.7),
  ('COc1ccccc1-c1sc(N)c(C(=O)c2ccc(Cl)cc2)c1CC(C)(C)C', 'fold change (FC)', 1.9),
  ('CC(C)(C)Cc1c(-c2ccc(Cl)c(Cl)c2)sc(N)c1C(=O)c1ccc(Cl)cc1', 'fold change (FC)', 4.3),
  ('Cc1c(-c2ccccc2)sc(N)c1C(=O)c1ccc(Cl)cc1', 'fold change (FC)', 1.5);

Working through the 4 compounds below one at a time, give fold change (FC) for each.
1. CC(C)(C)Cc1csc(N)c1C(=O)c1ccc(Cl)cc1
2. Cc1ccc(-c2sc(N)c(C(=O)c3ccc(Cl)cc3)c2CC(C)(C)C)cc1
3. COc1ccc(-c2sc(N)c(C(=O)c3cccc(Cl)c3)c2CC(C)(C)C)cc1
4. CC(C)(C)Cc1csc(N)c1C(=O)c1ccc(Cl)c(Cl)c1

A)
1: 1.6; 2: 6; 3: 3.7; 4: 2

----------
measuredOn: Adenosine receptor A1 (Homo sapiens) (UniProt P30542)
experiment: Allosteric enhancement of human adenosine A1 receptor expressed in CHO cells assessed as inhibition of forskolin-stimulated cAMP production at 10 uM preincubated for 10 mins followed by forskolin challenge measured after 5 mins by scintillation counting analysis relative to control
Type: functional, cell-based
Classify as follows. Reported inhibition greater than or equal to 40%: class 1. Reported inhibition below: class 0.

Worked examples follow.
INSERT INTO measurements (smilesrepr, label) VALUES
  ('CC(C)(C)Cc1c(Br)sc(N)c1C(=O)c1cccc(Cl)c1', 'class 1'),
  ('COc1cccc(-c2sc(N)c(C(=O)c3ccc(Cl)cc3)c2CC(C)(C)C)c1', 'class 1'),
  ('CC(C)(C)Cc1csc(N)c1C(=O)c1cccc(C(F)(F)F)c1', 'class 0'),
  ('COc1ccc(-c2sc(N)c(C(=O)c3cccc(C(F)(F)F)c3)c2CC(C)(C)C)cc1', 'class 1'),
  ('CC(C)c1ccc(-c2sc(N)c(C(=O)c3ccc(Cl)cc3)c2CC(C)(C)C)cc1', 'class 1');

Q) Check this molecule for inhibition at or above 40%: CC(C)(C)Cc1c(-c2ccncc2)sc(N)c1C(=O)c1ccc(Cl)cc1
A) class 1

Q) Check this molecule for inhibition at or above 40%: CC(C)(C)Cc1c(-c2ccoc2)sc(N)c1C(=O)c1ccc(Cl)cc1
A) class 1

Q) Check this molecule for inhibition at or above 40%: COc1ccc(-c2sc(N)c(C(=O)c3cccc(Cl)c3)c2CC(C)(C)C)cc1
A) class 1

Q) Check this molecule for inhibition at or above 40%: COc1ccc(-c2sc(N)c(C(=O)c3ccc(Cl)cc3)c2CC(C)(C)C)cc1
A) class 1

Q) Check this molecule for inhibition at or above 40%: Cc1ccc(C(=O)c2c(N)sc(-c3ccccc3)c2CC(C)(C)C)cc1
A) class 1

Q) Check this molecule for inhibition at or above 40%: CC(C)(C)Cc1c(/C=C/c2ccc(Cl)cc2)sc(N)c1C(=O)c1ccc(Cl)cc1
A) class 1

Q) Check this molecule for inhibition at or above 40%: CC(C)(C)Cc1c(-c2ccc(F)cc2F)sc(N)c1C(=O)c1ccc(Cl)cc1
A) class 1

Q) Check this molecule for inhibition at or above 40%: CC(C)(C)c1csc(N)c1C(=O)c1ccc(Cl)cc1
A) class 0

----------
measuredOn: Adenosine receptor A1 (Homo sapiens) (UniProt P30542)
experiment: Allosteric enhancement of human adenosine A1 receptor expressed in CHO cells assessed as inhibition of forskolin-stimulated cAMP production at 10 uM preincubated for 10 mins followed by forskolin challenge measured after 5 mins by scintillation counting analysis relative to control
Format: functional, cell-based
Class (by inhibition) -- I = under 40%, II = from 40% up to 50%, III = 50% and over

Worked examples follow.
INSERT INTO results (smilesrepr, label) VALUES
  ('Cc1sc(N)c(C(=O)c2ccc(Cl)cc2)c1-c1ccccc1', 'I'),
  ('Cc1ccccc1-c1sc(N)c(C(=O)c2ccc(Cl)cc2)c1CC(C)(C)C', 'II'),
  ('CC(C)(C)Cc1c(-c2ccc(Cl)c(Cl)c2)sc(N)c1C(=O)c1ccc(Cl)cc1', 'III'),
  ('Cc1ccc(C(=O)c2c(CC(C)(C)C)csc2N)cc1', 'I'),
  ('CC(C)(C)Cc1c(Br)sc(N)c1C(=O)c1ccc(Cl)cc1', 'II');

Q) Category of CC(C)(C)Cc1c(-c2c(F)cccc2F)sc(N)c1C(=O)c1ccc(Cl)cc1 :
A) II

Q) Category of CC(C)Cc1csc(N)c1C(=O)c1ccc(Cl)cc1 :
A) I

----------
measuredOn: Adenosine receptor A1 (Homo sapiens)
experiment: Allosteric enhancement of human adenosine A1 receptor expressed in CHO cells assessed as inhibition of forskolin-stimulated cAMP production at 100 nM preincubated for 10 mins followed by forskolin challenge measured after 5 mins by scintillation counting analysis in presence of CCPA relative to control
Type: functional, cell-based
assayEndpoint: inhibition (%)
Answers are plain numbers, in %.

Sample records with inhibition:
INSERT INTO assay_data (smilesrepr, unitspec, assayresult) VALUES
  ('CC(C)(C)Cc1c(-c2ccc(OC(F)(F)F)cc2)sc(N)c1C(=O)c1ccc(Cl)cc1', '%', 55),
  ('CC(C)(C)Cc1csc(N)c1C(=O)c1ccc(Cl)c(Cl)c1', '%', 41),
  ('CC(C)(C)Cc1c(-c2ccccc2)sc(N)c1C(=O)c1ccc(Cl)cc1', '%', 53);

Working through the 6 compounds below one at a time, give inhibition for each.
1. Cc1ccc(-c2sc(N)c(C(=O)c3ccc(Cl)cc3)c2CC(C)(C)C)cc1
2. CC(C)(C)Cc1c(-c2cc(F)ccc2F)sc(N)c1C(=O)c1ccc(Cl)cc1
3. CC(C)c1ccc(-c2sc(N)c(C(=O)c3ccc(Cl)cc3)c2CC(C)(C)C)cc1
4. CC(C)(C)Cc1csc(N)c1C(=O)c1ccc(Cl)cc1
5. Cc1ccc(C(=O)c2c(CC(C)(C)C)csc2N)cc1
6. CC(C)(C)Cc1c(/C=C/c2ccc(Cl)cc2)sc(N)c1C(=O)c1ccc(Cl)cc1

A)
58
45
58
37
35
53

Working through the 8 compounds below one at a time, give inhibition for each.
1. CC(C)(C)Cc1c(-c2ccsc2)sc(N)c1C(=O)c1ccc(Cl)cc1
2. CC(C)(C)Cc1csc(N)c1C(=O)c1cccc(Cl)c1
3. CC(C)(C)Cc1c(Br)sc(N)c1C(=O)c1ccc(Cl)c(Cl)c1
4. CC(C)(C)Cc1c(-c2ccc(Cl)c(Cl)c2)sc(N)c1C(=O)c1ccc(Cl)cc1
5. CC(C)(C)Cc1c(-c2ccccc2)sc(N)c1C(=O)c1cccc(Cl)c1
6. Cc1sc(N)c(C(=O)c2ccc(Cl)cc2)c1-c1ccccc1
7. Cc1csc(N)c1C(=O)c1ccc(Cl)cc1
8. CC(C)(C)Cc1c(-c2ccccc2)sc(N)c1C(=O)c1ccc(Cl)cc1Cl

A)
1. 67
2. 42
3. 40
4. 61
5. 57
6. 21
7. 18
8. 55

----------
For each entry below, report its inhibition value.
measuredOn: Adenosine receptor A3 (Homo sapiens)
Sequence (whole entry): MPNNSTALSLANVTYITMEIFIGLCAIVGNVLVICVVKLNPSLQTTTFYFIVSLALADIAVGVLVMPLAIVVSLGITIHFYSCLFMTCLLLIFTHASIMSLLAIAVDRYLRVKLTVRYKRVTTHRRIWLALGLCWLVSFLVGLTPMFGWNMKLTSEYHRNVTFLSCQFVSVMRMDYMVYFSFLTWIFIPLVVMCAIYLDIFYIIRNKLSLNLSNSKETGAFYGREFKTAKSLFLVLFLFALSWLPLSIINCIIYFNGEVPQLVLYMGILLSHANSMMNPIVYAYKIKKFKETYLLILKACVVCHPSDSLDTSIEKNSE
experiment: Displacement of [3H]-MRE-3008-F20 from human adenosine A3 receptor expressed in CHO cell membranes at 10 uM by scintillation counting analysis relative to control
Answers are plain numbers, in %.

Sample records with inhibition:
INSERT INTO measurements (smilesrepr, assayresult) VALUES
  ('Cc1ccc(C(=O)c2c(CC(C)(C)C)csc2N)cc1', 1),
  ('COc1ccc(-c2sc(N)c(C(=O)c3ccc(C)cc3)c2CC(C)(C)C)cc1', 5);

Working through the 3 compounds below one at a time, give inhibition for each.
1. Cc1c(Br)sc(N)c1C(=O)c1ccc(Cl)cc1
2. CC(C)Cc1csc(N)c1C(=O)c1ccc(Cl)cc1
3. CC(C)(C)Cc1c(-c2ccc(Cl)cc2)sc(N)c1C(=O)c1ccc(Cl)cc1

A)
[1, 1, 1]

Working through the 2 compounds below one at a time, give inhibition for each.
1. Cc1csc(N)c1C(=O)c1ccc(Cl)cc1
2. CC(C)(C)Cc1c(-c2ccc(Cl)c(Cl)c2)sc(N)c1C(=O)c1ccc(Cl)cc1

A)
[1, 1]

Working through the 8 compounds below one at a time, give inhibition for each.
1. CC(C)(C)Cc1csc(N)c1C(=O)c1ccc(Cl)cc1
2. CC(C)(C)Cc1c(-c2c(F)cccc2F)sc(N)c1C(=O)c1ccc(Cl)cc1
3. CC(C)(C)Cc1c(-c2ccco2)sc(N)c1C(=O)c1ccc(Cl)cc1
4. Cc1noc(C)c1-c1sc(N)c(C(=O)c2ccc(Cl)cc2)c1CC(C)(C)C
5. CC(C)(C)Cc1csc(N)c1C(=O)c1ccc(Cl)c(Cl)c1
6. COCCOc1ccc(-c2sc(N)c(C(=O)c3ccc(Cl)cc3)c2CC(C)(C)C)cc1
7. CC(C)c1ccc(-c2sc(N)c(C(=O)c3ccc(Cl)cc3)c2CC(C)(C)C)cc1
8. Cc1ccccc1-c1sc(N)c(C(=O)c2ccc(Cl)cc2)c1CC(C)(C)C

A)
1. 5
2. 1
3. 1
4. 1
5. 10
6. 1
7. 1
8. 1

These entries and their values trace back to ChEMBL document CHEMBL3098020.
